System: MOLT-4
Experiment: NCI 60 cell line screen
Format: cell-based, human
Details: Homo sapiens; MOLT-4, Leukemia; read-out: Percent growth
endpoint.name: activity at 10 µM (%)
Just the number in %, nothing appended.

Reference set, count: 4
compound | target.or.test.system | unit.abbrev | value.measured
O=S(=O)(NCCNc1nccc(-n2cnc3ccccc32)n1)c1ccccc1 [12a] | MOLT-4 | % | 93.7
O=S(=O)(NCCCNc1nccc(-n2cnc3ccccc32)n1)c1ccc(Cl)cc1 [12j] | MOLT-4 | % | 82.3
O=S(=O)(NCCNc1nccc(-n2cnc3ccccc32)n1)c1ccc(C(F)(F)F)cc1 [12e] | MOLT-4 | % | 45.2
O=S(=O)(NCCCNc1nccc(-n2cnc3ccccc32)n1)c1ccc(Br)cc1 [12k] | MOLT-4 | % | 64.9

Note: attention shifts to another entry.
Query: Return activity at 10 µM for the following compound: COc1ccc(S(=O)(=O)NCCCNc2nccc(-n3cnc4ccccc43)n2)cc1 [12m]
Result: 77
